Entries and their measured pIC50 follow.
test system: L02; assay: Cytotoxicity against human L02 cells after 24 hrs by MTT assay; type: cell-based; conditions: L02, 24 h
Scale: negative log10 of molar concentration, which is what pIC50 denotes.

COc1cc([C@@H]2c3cc4c(cc3[C@H](OC(=O)CN3CCN(C(c5ccccc5)c5ccccc5)CC3)[C@H]3COC(=O)[C@H]23)OCO4)cc(OC)c1OC; 4.18

Prompt line: Supply recorded pIC50 for COc1cc([C@@H]2c3cc4c(cc3[C@H](OC(=O)CN3CCN(c5ccc(C)cc5C)CC3)[C@H]3COC(=O)[C@H]23)OCO4)cc(OC)c1OC here.
Response line: 4.03

----------
system: L02; experiment: Cytotoxicity against human L02 cells after 24 hrs by MTT assay; assay type: cell-based; conditions: L02, 24 h
Entries and their measured IC50 follow.
Your answer should be a plain number; it is taken to be in µM.

# count of solved cases: 4
COc1cc([C@@H]2c3cc4c(cc3[C@H](OC(=O)CN3CCN(c5ccccc5)CC3)[C@H]3COC(=O)[C@H]23)OCO4)cc(OC)c1OC; 75.8
COc1ccccc1N1CCN(CC(=O)O[C@H]2c3cc4c(cc3[C@@H](c3cc(OC)c(OC)c(OC)c3)[C@H]3C(=O)OC[C@@H]32)OCO4)CC1; 90.7
COc1cc([C@@H]2c3cc4c(cc3[C@H](OC(=O)CN3CCN(c5cccc(Cl)c5)CC3)[C@H]3COC(=O)[C@H]23)OCO4)cc(OC)c1OC; 99.3
COc1ccc(N2CCN(CC(=O)O[C@H]3c4cc5c(cc4[C@@H](c4cc(OC)c(OC)c(OC)c4)[C@H]4C(=O)OC[C@@H]43)OCO5)CC2)cc1; 87.9

Attention now turns to another entry.
Prompt line: Supply recorded IC50 for COc1cc([C@@H]2c3cc4c(cc3[C@H](OC(=O)CN3CCN(c5cccc(Cl)c5Cl)CC3)[C@H]3COC(=O)[C@H]23)OCO4)cc(OC)c1OC here.
Response line: 97.8

----------
tested on: L02; experiment: Cytotoxicity against human L02 cells after 24 hrs by MTT assay; type: cell-based; details: L02, 24 h
Entries and their measured IC50 follow.
Your answer should be a plain number; it is taken to be in µM.

COc1cc([C@@H]2c3cc4c(cc3[C@H](O)[C@H]3COC(=O)[C@H]23)OCO4)cc(OC)c1OC; 3.72

Attention now turns to another entry.
Prompt line: Supply recorded IC50 for COc1cc([C@@H]2c3cc4c(cc3[C@@H](O[C@@H]3O[C@@H]5CO[C@@H](C)O[C@H]5[C@H](O)[C@H]3O)[C@H]3COC(=O)[C@H]23)OCO4)cc(OC)c1O [ETOPOSIDE] here.
Response line: 7.75
